Just for reference, patent US20190284293A1 is where these values come from.

- experimental.system: CD16a-V158 (FcgRIIIa-V158) (Homo sapiens, UniProt P08637, F176V)
- Sequence (P08637 17-208 F176V limits assumed): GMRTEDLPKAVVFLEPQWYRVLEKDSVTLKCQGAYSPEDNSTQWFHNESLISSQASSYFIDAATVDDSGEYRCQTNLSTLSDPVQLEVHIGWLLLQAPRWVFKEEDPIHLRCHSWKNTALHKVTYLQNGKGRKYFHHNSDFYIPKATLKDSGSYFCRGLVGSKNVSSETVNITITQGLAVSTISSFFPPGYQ
- test.summary: SPR, antibody binding to anti-his Fab captured FcgR-his (% Rmax)
- condition.notes: 1 μM antibody
observed.property: % Rmax hCD16a-V158 (%)
Answer with a number only, understood to be in %.

Worked examples, 2 molecules total:
mAb11-IgG2.5 (protein, left off: another chain or arm of the molecule) constant: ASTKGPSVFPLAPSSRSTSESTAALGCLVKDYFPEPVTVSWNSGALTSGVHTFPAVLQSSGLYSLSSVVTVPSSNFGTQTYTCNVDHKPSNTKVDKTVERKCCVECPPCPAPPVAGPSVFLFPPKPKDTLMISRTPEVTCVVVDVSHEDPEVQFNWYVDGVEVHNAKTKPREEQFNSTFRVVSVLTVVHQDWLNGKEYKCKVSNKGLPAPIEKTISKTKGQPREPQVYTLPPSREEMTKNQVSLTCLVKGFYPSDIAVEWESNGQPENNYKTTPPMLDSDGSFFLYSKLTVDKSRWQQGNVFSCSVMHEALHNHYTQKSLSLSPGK	0
mAb8-IgG2.5G1-AY-V27 (protein, left off: another chain or arm of the molecule) constant: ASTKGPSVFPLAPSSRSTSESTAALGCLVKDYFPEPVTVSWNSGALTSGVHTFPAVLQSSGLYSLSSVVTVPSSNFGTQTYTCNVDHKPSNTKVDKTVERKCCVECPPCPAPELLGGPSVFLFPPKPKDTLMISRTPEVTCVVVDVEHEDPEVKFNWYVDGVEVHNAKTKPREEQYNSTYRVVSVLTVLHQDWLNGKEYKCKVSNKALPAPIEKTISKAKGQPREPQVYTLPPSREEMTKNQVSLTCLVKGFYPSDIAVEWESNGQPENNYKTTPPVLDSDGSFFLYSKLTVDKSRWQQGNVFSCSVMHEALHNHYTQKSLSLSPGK	33

Shift focus to the following entry.
Problem: Query % Rmax hCD16a-V158 for mAb10-IgG2.5 (protein, left off: another chain or arm of the molecule) constant: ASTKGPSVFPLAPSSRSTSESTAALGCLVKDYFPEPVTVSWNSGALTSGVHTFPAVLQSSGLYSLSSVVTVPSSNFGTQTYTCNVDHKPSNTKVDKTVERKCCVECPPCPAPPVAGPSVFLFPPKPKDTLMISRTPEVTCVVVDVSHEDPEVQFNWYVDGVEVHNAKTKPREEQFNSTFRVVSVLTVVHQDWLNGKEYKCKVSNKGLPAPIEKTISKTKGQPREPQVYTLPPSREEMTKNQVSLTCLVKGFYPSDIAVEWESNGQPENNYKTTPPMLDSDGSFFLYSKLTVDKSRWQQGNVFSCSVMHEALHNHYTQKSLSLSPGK
Result: 1
